Measured fraction ligated, listed per entry for reference.
B1: F1*; the commonest letter at each place (parent)
chain: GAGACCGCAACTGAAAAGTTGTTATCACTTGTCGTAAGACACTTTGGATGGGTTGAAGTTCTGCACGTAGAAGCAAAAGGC

- Variants of: B1
- assay: fraction ligated after 30 min (ligated reads / total reads); higher = more ligase activity
- condition_details: with F1*sub RNA substrate (template-directed ligation), 42 °C
result_type: fraction ligated

>  <mutation_code>
A27C T35A

>  <value_measured>
0.835

$$$$
>  <mutation_code>
G34A A41T

>  <value_measured>
0.811

$$$$
>  <mutation_code>
T32G A36C

>  <value_measured>
0.798

$$$$
>  <mutation_code>
T30G C40T

>  <value_measured>
0.819

$$$$
>  <mutation_code>
T30G G46A

>  <value_measured>
0.791

$$$$
>  <mutation_code>
G31A T44A

>  <value_measured>
0.818

$$$$
>  <mutation_code>
A39T A41C

>  <value_measured>
0.782

$$$$
>  <mutation_code>
C26G A27T

>  <value_measured>
0.411

$$$$
>  <mutation_code>
C40A T45A

>  <value_measured>
0.66

$$$$
>  <mutation_code>
G31T G34T

>  <value_measured>
0.793

$$$$
>  <mutation_code>
T45C A57C

>  <value_measured>
0.785

$$$$
>  <mutation_code>
A48G G50A

>  <value_measured>
0.118

$$$$
>  <mutation_code>
T25C G34C

>  <value_measured>
0.795

$$$$
>  <mutation_code>
T29A T35C

>  <value_measured>
0.828

$$$$
>  <mutation_code>
A41C T44C

>  <value_measured>
0.769

$$$$
>  <mutation_code>
G31T A41G

>  <value_measured>
0.761

$$$$
>  <mutation_code>
G31C G38C

>  <value_measured>
0.778

$$$$
>  <mutation_code>
T29C A37C

>  <value_measured>
0.828

$$$$
>  <mutation_code>
T23A A56T

>  <value_measured>
0.754

$$$$
>  <mutation_code>
T32A C33A

>  <value_measured>
0.811

$$$$
>  <mutation_code>
A37G G55A

>  <value_measured>
0.846

$$$$
>  <mutation_code>
T32A G46C

>  <value_measured>
0.778

$$$$
